# credit: patent US11191754B2

Tested on: HBV
assay notes: HBV replication assay in HepDES19 cells
Assay type: cell-based, hepatitis B virus
setup conditions: Hepatitis B virus; HBV replication, HepDES19 cells
In this section we review reported EC50 values for a set of molecules.
experimental readout: EC50

INSERT INTO measurements (molecule, target_of_assay, result_value) VALUES
  ('O=c1cc(NCc2ccccc2)c2cccnc2n1O [#151]', 'HBV', '4.7 µM'),
  ('C/C(=N\c1ccccc1N)c1c(C)cc(=O)n(O)c1O [#208]', 'HBV', '0.69 µM'),
  ('NCc1cccc(-c2ccc(Cc3cc(=O)n(O)c4ncccc34)cc2)c1 [Compound 153]', 'HBV', '4.1 µM'),
  ('Cc1ccc(O)c(=O)c(O)c1 [#210]', 'HBV', '1.5 µM'),
  ('Cc1cc(COc2ccc(Oc3ccc(Cl)cc3)cc2)n(O)c(=O)c1 [#211]', 'HBV', '13 µM');
